# Tested on: Candida albicans TIMM0136
# Type: cell-based
We begin with a simple list: items and their reported MIC (μg/ml) C.a..
RECORDED ENDPOINT: MIC (μg/ml) C.a. (µg/mL)

[
  {
    "COMPOUND": "CCCCCCCCCCCCCC1CC(=O)N[C@@H](C)C(=O)N[C@@H](CCCN)C(=O)N[C@@H](CC(=O)O)C(=O)N[C@@H](CO)C(=O)N[C@@H](CO)C(=O)N[C@H](CC(N)=O)C(=O)N[C@H]([C@@H](C)O)C(=O)NCC(=O)O1 (mixture of isomers)",
    "RESULT MODIFIER": "=",
    "VALUE MEASURED": 6.25
  },
  {
    "COMPOUND": "CCCCCCCCCCCCCC1CC(=O)N[C@@H](C)C(=O)N[C@@H](CCCN)C(=O)NCCC(=O)N[C@@H](CO)C(=O)N[C@@H](CO)C(=O)N[C@H](CC(N)=O)C(=O)N[C@@H]([C@@H](C)O)C(=O)NCC(=O)O1 (stereo partly shown)",
    "RESULT MODIFIER": ">",
    "VALUE MEASURED": 200
  },
  {
    "COMPOUND": "CCCCCCCCCCCCCC1CC(=O)N[C@@H](C)C(=O)N[C@@H](CCCN)C(=O)N[C@@H](CO)C(=O)N[C@@H](CO)C(=O)N[C@@H](CO)C(=O)N[C@H](CC(N)=O)C(=O)N[C@H]([C@@H](C)O)C(=O)NCC(=O)O1 (mixture of isomers)",
    "RESULT MODIFIER": "=",
    "VALUE MEASURED": 6.25
  },
  {
    "COMPOUND": "CCCCCCCCCCCCCC1CC(=O)N[C@@H](C)C(=O)N[C@@H](CCCN)C(=O)N[C@@H](CC(N)=O)C(=O)N[C@@H](CO)C(=O)N[C@@H](CO)C(=O)N[C@H](CC(N)=O)C(=O)N[C@H]([C@@H](C)O)C(=O)NCC(=O)O1 (mixture of isomers)",
    "RESULT MODIFIER": "=",
    "VALUE MEASURED": 6.25
  },
  {
    "COMPOUND": "CCCCCCCCCCCCCC1CC(=O)N[C@@H](C)C(=O)N[C@@H](CCCN)C(=O)NCCC(=O)N[C@@H](CO)C(=O)N[C@@H](CO)C(=O)N[C@H](CC(N)=O)C(=O)N[C@H]([C@H](C)O)C(=O)NCC(=O)O1 (stereo partly shown)",
    "RESULT MODIFIER": ">",
    "VALUE MEASURED": 200
  },
  {
    "COMPOUND": "CCCCCCCCCCCCCC1CC(=O)N[C@@H](C)C(=O)N[C@@H](CCCN)C(=O)NCC(=O)N[C@@H](CO)C(=O)N[C@@H](CO)C(=O)N[C@H](CC(N)=O)C(=O)N[C@H]([C@@H](C)O)C(=O)NCC(=O)O1 (mixture of isomers)",
    "RESULT MODIFIER": "=",
    "VALUE MEASURED": 12.5
  },
  {
    "COMPOUND": "CCCCCCCCCCCCCC1CC(=O)N[C@@H](C)C(=O)N[C@@H](CCCN)C(=O)N[C@@H](CCC(=O)O)C(=O)N[C@@H](CO)C(=O)N[C@@H](CO)C(=O)N[C@H](CC(N)=O)C(=O)N[C@H]([C@@H](C)O)C(=O)NCC(=O)O1 (mixture of isomers)",
    "RESULT MODIFIER": "=",
    "VALUE MEASURED": 3.12
  }
]
